Origin of values: the Kinase Knowledgebase extract (Sharma et al. 2016)

molecular target: MAPK14 (human); assay: Inhibition of MAPK14 Kinase Activity by PHAS-I Assay; conditions: concentration not given here
Respond with Y for inhibition values of 80% and above, N for values below.

1) Cc1c(-c2ccncc2)c(-c2ccc(F)cc2)nn1CC(=O)N(C)CC(=O)N(C)C :: N
2) O=C(NCCc1[nH]nc(-c2ccc(F)cc2)c1-c1ccncc1)Nc1cc(Cl)cc(Cl)c1 :: N
3) O=C(NCCc1[nH]nc(-c2ccc(F)cc2)c1-c1ccncc1)Nc1ccc(Br)cc1 :: N
4) CC(C)S(=O)(=O)NCCCc1[nH]nc(-c2ccc(F)cc2)c1-c1ccncc1 :: Y
5) CCOC(=O)C(C)NC(=O)NCCc1[nH]nc(-c2ccc(F)cc2)c1-c1ccncc1 (stereo not drawn) :: N
6) COC(=O)[C@@H](Cc1cn(C)cn1)NC(=O)Cn1nc(-c2ccc(F)cc2)c(-c2ccncc2)c1C :: N
7) CCOC(=O)NCCCc1[nH]nc(-c2ccc(F)cc2)c1-c1ccncc1 :: Y
8) O=C(NCCc1[nH]nc(-c2ccc(F)cc2)c1-c1ccncc1)Nc1ccc(OC(F)(F)F)cc1 :: N
9) COC(=O)[C@H](CC(C)C)NC(=O)Cn1nc(-c2ccc(F)cc2)c(-c2ccncc2)c1C :: N
10) CCOC(=O)c1ccc(NC(=O)NCCc2[nH]nc(-c3ccc(F)cc3)c2-c2ccncc2)cc1 :: Y
11) CC(C)OC(=O)NCCCc1[nH]nc(-c2ccc(F)cc2)c1-c1ccncc1 :: Y
12) Cc1c(-c2ccncc2)c(-c2ccc(F)cc2)nn1CC(=O)Nc1ccccc1C(=O)OC(C)C :: Y
13) CCOC(=O)C(CC(C)C)NC(=O)C(=O)NCCc1[nH]nc(-c2ccc(F)cc2)c1-c1ccncc1 (stereo not drawn) :: N
14) Cc1c(-c2ccncc2)c(-c2ccc(F)cc2)nn1CC(=O)N(CC1CC1)C(C)Cc1ccc(Cl)cc1 (stereo not drawn) :: Y
15) C=CCN(C(=O)Cn1nc(-c2ccc(F)cc2)c(-c2ccncc2)c1C)C1CCCCC1 :: N
16) Cc1cccc(NC(=O)Cn2nc(-c3ccc(F)cc3)c(-c3ccncc3)c2C)c1 :: Y
17) CCN1CCN(C(=O)Cn2nc(-c3ccc(F)cc3)c(-c3ccncc3)c2C)CC1 :: N
18) CC(C)(C)C(=O)NCCCc1[nH]nc(-c2ccc(F)cc2)c1-c1ccncc1 :: Y
19) O=S(=O)(NCCc1[nH]nc(-c2ccc(F)cc2)c1-c1ccncc1)c1ccccc1 :: Y
20) CC(NC(=O)NCCc1[nH]nc(-c2ccc(F)cc2)c1-c1ccncc1)c1cccc2ccccc12 (stereo not drawn) :: Y
21) Cc1c(-c2ccncc2)c(-c2ccc(F)cc2)nn1CC(=O)N1CCCC1 :: N
22) O=S(=O)(NCc1[nH]nc(-c2ccc(F)cc2)c1-c1ccncc1)c1ccc(OC(F)(F)F)cc1 :: N
23) CCOC(=O)CNC(=O)NCCc1[nH]nc(-c2ccc(F)cc2)c1-c1ccncc1 :: N
24) Cc1c(-c2ccncc2)c(-c2ccc(F)cc2)nn1CC(=O)Nc1cccc(F)c1 :: Y
25) O=S(=O)(Cc1ccccc1)NCCc1[nH]nc(-c2ccc(F)cc2)c1-c1ccncc1 :: Y
26) Cc1c(-c2ccncc2)c(-c2ccc(F)cc2)nn1CC(=O)N(C)CCn1ccnc1 :: N
27) Cc1c(-c2ccncc2)c(-c2ccc(F)cc2)nn1CC(=O)Nc1ccc(Cl)cc1 :: Y
28) Cc1c(-c2ccncc2)c(-c2ccc(F)cc2)nn1CC(=O)NC1CCCc2ccccc21 (stereo not drawn) :: N
29) CCOC(=O)CN(Cc1ccccn1)C(=O)Cn1nc(-c2ccc(F)cc2)c(-c2ccncc2)c1C :: N
30) COC(=O)C(Cc1ccc([N+](=O)[O-])cc1)NC(=O)Cn1nc(-c2ccc(F)cc2)c(-c2ccncc2)c1C (stereo not drawn) :: N
31) CC(C)COC(=O)NCCCc1[nH]nc(-c2ccc(F)cc2)c1-c1ccncc1 :: N
32) COc1ccc(CC(=O)NCCc2[nH]nc(-c3ccc(F)cc3)c2-c2ccncc2)cc1 :: N
33) Cc1c(-c2ccncc2)c(-c2ccc(F)cc2)nn1CC(=O)Nc1ccccc1F :: Y
